system_name: glutathione S-transferase (GST)-linked full-length human Syk protein (Homo sapiens, UniProt P43405)
reported_endpoint: IC50

See these solved cases before continuing.
[
  {
    "molecule": "COCCn1ncc2cc(Nc3nc(N[C@H](C4CC4)[C@H](C)N)c(F)cc3C(N)=O)ccc21 [Example 2-265]",
    "reported_endpoint": "IC50",
    "result": "< 10 nM"
  },
  {
    "molecule": "C[C@H](N)[C@H](Nc1nc(Nc2ccc3c(c2)c(N(C)C)nn3C)c(C(N)=O)cc1F)C1CC1 [Example 2-72]",
    "reported_endpoint": "IC50",
    "result": "< 10 nM"
  },
  {
    "molecule": "CN(C)c1c2cc(Nc3nc(N[C@@H]4CCCC[C@@H]4N)c(F)cc3C(N)=O)ccc2nn1C [Example 2-13]",
    "reported_endpoint": "IC50",
    "result": "< 10 nM"
  },
  {
    "molecule": "COCCN(C)c1nn(C)c2ccc(Nc3nc(N[C@@H]4CCOC[C@@H]4N)c(F)cc3C(N)=O)cc12 [Example 2-457]",
    "reported_endpoint": "IC50",
    "result": "< 10 nM"
  },
  {
    "molecule": "COc1nn(C)c2ccc(Nc3nc(N[C@@H](CN)CC(C)C)c(F)cc3C(N)=O)cc12 [Example 2-78]",
    "reported_endpoint": "IC50",
    "result": "< 10 nM"
  }
]

What IC50 value was documented for this molecule, CC[C@@H](Nc1nc(Nc2ccc3c(c2)c(N(C)C)nn3CCOC)c(C(N)=O)cc1F)[C@H](C)N [Example 2-502] ? 10 to 50 nM

Need IC50 of CNc1ncc(Nc2nc(N[C@H](CC(C)C)[C@H](C)N)c(F)cc2C(N)=O)cc1F [Example 2-278] , thanks. 10 to 50 nM

Entry under review: CC[C@H](N)[C@@H](C)Nc1nc(Nc2ccc3[nH]nc(N(C)C)c3c2)c(C(N)=O)cc1F [Example 2-495] . Reported IC50? < 10 nM

IC50 for COCCn1ncc2c(Nc3nc(N[C@H](CC(C)C)[C@H](C)N)c(F)cc3C(N)=O)cncc21 [Example 2-390] ? < 10 nM

Record request: IC50 value, item COc1nn(C)c2ccc(Nc3nc(N[C@@H]4CCOC[C@@H]4N)c(F)cc3C(N)=O)cc12 [Example 2-210] < 10 nM

So what's the measured IC50 for this one? CCCC[C@@H](Nc1nc(Nc2ccc3c(c2)c(OC)nn3C)c(C(N)=O)cc1F)[C@H](C)N [Example 2-83] < 10 nM

What measured IC50 goes with CC[C@@H](Nc1nc(Nc2ccc3c(c2)c(NC)nn3C)c(C(N)=O)cc1F)[C@H](C)N [Example 2-497] ? 50 to 100 nM

Please look up its IC50: CC[C@H](N)[C@H](Nc1nc(Nc2cc(OC)cc(OC)c2)c(C(N)=O)cc1F)C1CC1 [Example 2-361] 10 to 50 nM

IC50 lookup needed for Cc1cnn(-c2cncc(Nc3nc(N[C@H](C4CCC4)[C@H](C)N)c(F)cc3C(N)=O)c2)c1 [Example 2-523] , thanks. < 10 nM

Given the molecule COCCOc1ncc(Nc2nc(N[C@H](CC(C)C)[C@H](C)N)c(F)cc2C(N)=O)cc1-n1nccn1 [Example 2-140] , what is its reported IC50? 10 to 50 nM

Query (molecule): CCCC[C@@H](Nc1nc(Nc2cncc3c2cnn3CCOC)c(C(N)=O)cc1F)[C@H](C)N [Example 2-389] ; field requested: IC50 10 to 50 nM

# input molecule: COC[C@@H](Nc1nc(Nc2cc(Cl)c3c(cnn3C)c2)c(C(N)=O)cc1F)[C@H](C)N [Example 2-149] ; wanted: its IC50 < 10 nM

Recorded IC50 of Cc1cnn(-c2cncc(Nc3nc(N[C@@H](CN)CC(C)C)c(F)cc3C(N)=O)c2)c1 [Example 2-524] , please. < 10 nM

Record request: IC50 value, item CC[C@@H](Nc1nc(Nc2cccc(C)c2)c(C(N)=O)cc1F)[C@H](C)N [Example 2-474] < 10 nM

Data origin: patent US9051310B2
